List of In Vitro Score values.
# measured.target: HLA-A*11:01 (recombinant MHC class I molecule) (human)
# assay.procedure: REVEAL MHC-peptide binding assay, recombinant HLA-A*11:01
# Experimental: Specifically, assessment was of a series of overlapping 9-mer peptides derived from the sequence […] […] In addition, a series of overlapping 9-mer peptides of each of a number of different variants of this portion also were assessed, each variant containing a mutation or mutations in this region as described in Example 2. […]

The following binders have reported results that may help.
Request: Quick one: In Vitro Score for FIIFWVKRG [Synthetic peptide FIIFWVKRG] ?
Response: 0.4 score, % of positive control peptide

Request: Quick one: In Vitro Score for VAFIIFWVL [Synthetic peptide VAFIIFWVL] ?
Response: 0.2 score, % of positive control peptide

Request: Quick one: In Vitro Score for WVSRGRKKL [Synthetic peptide WVSRGRKKL] ?
Response: 4.4 score, % of positive control peptide

Request: Quick one: In Vitro Score for FIIFWVQRG [Synthetic peptide FIIFWVQRG] ?
Response: 1.5 score, % of positive control peptide

Request: Quick one: In Vitro Score for AFIIFWVQR [Synthetic peptide AFIIFWVQR] ?
Response: 15 score, % of positive control peptide

---
Request: Quick one: In Vitro Score for FWVKRGNKK [Synthetic peptide FWVKRGNKK] ?
Response: 7.3 score, % of positive control peptide

Request: Quick one: In Vitro Score for WVKRGRKKS [Synthetic peptide WVKRGRKKS] ?
Response: 6.7 score, % of positive control peptide
